Data origin, for the record: ChEMBL document CHEMBL1201862

test system: LOX IMVI; assay: NCI tumour cell line growth inhibition, 48 h
Calls of active or inactive are those of the source. Rule as the data show it: active = GI50 up to about 1.1 µM and inactive = higher. Where a SMILES comes first, the peptide text is derived from it.
Consider the following molecules; for each one, report its GI50.

OCCC/N=C1N=C(Cl)/C(=C\c2ccccc2)N\1    > 100 µM (inactive)
CCOC(=O)C(O)(C(=O)OCC)c1cc(C(C)(C)C)c(O)c(C(C)(C)C)c1    37.2 µM (inactive)
C[C@@]12[C@H]3CC[C@@H]1[C@H](O)C(=O)N2CC3    > 100 µM (inactive)
COc1cccc(CCNc2c(C#N)c3n(c4ccccc4[n+]3C)c3ncccc23)c1    1.74 µM (inactive)
CCOC(=O)/C=C\c1c(Cl)n(-c2ccccc2)c(=O)n(-c2ccccc2)c1=O    22.6 µM (inactive)

Quick batch: GI50 for everything below.
1. O=C(c1nc2ccc(Cl)cc2[nH]c1=O)C(O)c1cccc([N+](=O)[O-])c1 (stereo not given)
2. CCC(C)C1NC(=O)C2CCCN2C(=O)CNC(=O)C(C)NC(=O)C(Cc2ccccc2)NC(=O)C(C(C)C)NC1=O (stereo not given) (cyclo(GPIVFA); configuration not given here)
3. COc1cc(/C=C2\CCC/C(=C\c3cc(OC)c(O)c(OC)c3)C2=O)cc(OC)c1O
4. COc1cc(C=C2C(=O)OC(C)(C)OC2=O)cc(OC)c1OC
5. CC(O)c1ccc[n+](Cc2ccccc2)c1 (stereo not given)

# output
["18.5 µM (inactive)", "> 100 µM (inactive)", "1.91 µM (inactive)", "> 100 µM (inactive)", "> 400 µM (inactive)"]

----------
test system: NCI-H460; assay: NCI tumour cell line growth inhibition, 48 h
Active and inactive are the calls of the source. Cut-off read from the data, not from the text of the source: active = GI50 up to about 1.1 µM and inactive = higher.
Consider the following molecules; for each one, report its GI50.

Quick batch: GI50 for everything below.
1. COC(=O)C(Cl)=C1CC1
2. N#CC1CCCCCCCCCCC(=O)N(CCCl)C1=O (configuration not stated)
3. O=C(NC1C=CCC2C(=O)N(c3ccccc3)C(=O)C12)OCc1ccccc1 (configuration not stated)
4. CCc1ccccc1NC(=O)C1=C(C)NC(C)=C(C(=O)Nc2c(CC)cccc2CC)C1c1ccc2c(c1)OCO2 (configuration not stated)

# output
["> 100 µM (inactive)", "> 100 µM (inactive)", "> 100 µM (inactive)", "16.6 µM (inactive)"]

----------
Consider the following compounds; for each one, report its GI50.
system: LOX IMVI; assay: NCI tumour cell line growth inhibition, 48 h
Calls of active or inactive are those of the source. No stated cut-off is given here; in the data, active = GI50 up to about 1.1 µM and inactive = higher.

Quick batch: GI50 for everything below.
1. COc1ccc2nc3c([N+](=O)[O-])ccc4c3c(c2c1)N=CN4CCN(C)C
2. Cn1ccnc1Sc1ccc(/C=N/NC(=O)c2ccccc2[N+](=O)[O-])cc1[N+](=O)[O-]
3. CCOC(=O)NC(OCc1ccccc1)(C(=O)OC)C(F)(F)F (stereo not drawn)

# output
["3.38 µM (inactive)", "37.3 µM (inactive)", "> 100 µM (inactive)"]

----------
test system: CCRF-CEM; assay: NCI tumour cell line growth inhibition, 48 h
Activity calls are given as the source filed them. No stated cut-off is given here; in the data, active = GI50 up to about 1.1 µM and inactive = higher.
One label from this list, please: true (1) = active, false (0) = inactive

Worked cases, answers included:
COC(=O)/C=C\C(C#N)(C#N)/N=C/c1cccs1    true (1)
O=c1[nH]c(Br)nc2[nH]nnc12    false (0)
C=CCN(c1cc(OCc2ccccc2)c2c(c1)c(C)cn2S(=O)(=O)c1ccccc1)S(C)(=O)=O    false (0)

# input // return assay outcome for `O=C(c1cccs1)N(C(=S)N1CCN(c2ccccn2)CC1)c1ccccc1`
# output false (0)

# input Another compound to look at: c1cncc(C2c3[nH]c4ccccc4c3CCN2CCN2CCCCC2)c1 (stereo unspecified)
# output false (0)

# input Another compound to look at: `CC(=O)NC1=C(N)C(=O)c2ccccc2C1=O`
# output false (0)

# input Another compound to look at: `CCOC(=O)Nc1cc2ccccc2c(/N=N/c2ccccc2)c1O`
# output false (0)

# input Another compound to look at: `COc1ccc(/C=C2\N=C(c3ccccc3)N(NC3=NC(=O)CC(=O)N3)C2=O)cc1`
# output false (0)

# input Another compound to look at: `CN(C)CCCNc1c2c(=O)n(C)c(=O)nc-2n(C)c2ccccc12`
# output false (0)

# input Another compound to look at: CCCCCCCCCCCCCCCC(=O)Nc1ccn(C2OC(CO)C(O)C2O)c(=O)n1 (stereo unspecified)
# output true (1)

# input Another compound to look at: O=C1CC=C2C3CC4N(CCC45c4ccccc4N1C25)C/C3=C\CO (stereo unspecified)
# output false (0)
